System: chickweed (Stellaria media)
Experiment: Test B postemergence plant response
Format: in vivo
Settings: 31 g ai/ha, postemergence; scale 0 to 100, 0 is no effect, 100 is complete control
From the text: […] Treated plants and controls were maintained in a greenhouse for 13 to 15 days, after which time all treated plants were visually evaluated and compared to controls. […]
Experimental Endpoint: Plant response rating, Chickweed
Number only, please.

Measured Plant response rating, Chickweed (chickweed (Stellaria media)), entry "CC(C)CC(=O)OC1=C(C(=O)c2cnc(-c3ccccc3)n(-c3ccccc3)c2=O)C(=O)CCC1" : 90

Measured Plant response rating, Chickweed (chickweed (Stellaria media)), entry "CCCn1c(-c2cccs2)ncc(C(=O)C2=C(O)CCCC2=O)c1=O" : 80

Measured Plant response rating, Chickweed (chickweed (Stellaria media)), entry "CCCCCn1c(-c2ccccc2)ncc(C(=O)C2=C(O)CCCC2=O)c1=O" : 75

Measured Plant response rating, Chickweed (chickweed (Stellaria media)), entry "COCCn1c(-c2cccc(C)c2)ncc(C(=O)C2=C(O)CCCC2=O)c1=O" : 85

Measured Plant response rating, Chickweed (chickweed (Stellaria media)), entry CCCc1ncc(C(=O)C2=C(O)CCCC2=O)c(=O)n1CC1CCCO1 (centres unmarked) : 75

Measured Plant response rating, Chickweed (chickweed (Stellaria media)), entry "CCCCc1ncc(C(=O)C2=C(O)CCCC2=O)c(=O)n1-c1ccc(C)cc1" : 90

Measured Plant response rating, Chickweed (chickweed (Stellaria media)), entry "CCCCn1c(-c2cc(F)cc(F)c2)ncc(C(=O)C2=C(O)CCCC2=O)c1=O" : 100

Measured Plant response rating, Chickweed (chickweed (Stellaria media)), entry "CCCCc1ncc(C(=O)C2=C(O)CCCC2=O)c(=O)n1-c1cccc(C)c1" : 60
